Parameter: half-life at 1 µM. Scope: all listed entries.
# Experimental Details: Half life in rat liver microsomes at 1 uM by LC-MS/MS analysis
# Format: ADME, Microsome
Just the number in min, nothing appended.

Q: Please report the measured half-life at 1 µM for COc1cc2nc(N3CCN(CCCCCC(=O)NO)CC3)nc(NC3CCN(Cc4ccccc4)CC3)c2cc1OC
Ans: 16

Q: Please report the measured half-life at 1 µM for O=C(c1ccc(F)cc1)C1CCN(CCn2c(=O)[nH]c3ccccc3c2=O)CC1
Ans: 16.2

----------
# Experimental Details: Metabolic stability in rat liver microsomes assessed as parent compound remaining at 1 uM measured after 30 mins by LC-MS/MS analysis
# Assay type: ADME, Microsome
# Condition Summary: read-out: Stability
Quantity Kind: remaining at 0.5 h, 1 µM (%)
Just the number in %, nothing appended.

Q: Please report the measured remaining at 0.5 h, 1 µM for COc1cc2nc(N3CCN(CCCCCC(=O)NO)CC3)nc(NC3CCN(Cc4ccccc4)CC3)c2cc1OC
Ans: 26.8

----------
# System Tested: UniProtKB Q13547
# Sequence (Q13547 whole entry): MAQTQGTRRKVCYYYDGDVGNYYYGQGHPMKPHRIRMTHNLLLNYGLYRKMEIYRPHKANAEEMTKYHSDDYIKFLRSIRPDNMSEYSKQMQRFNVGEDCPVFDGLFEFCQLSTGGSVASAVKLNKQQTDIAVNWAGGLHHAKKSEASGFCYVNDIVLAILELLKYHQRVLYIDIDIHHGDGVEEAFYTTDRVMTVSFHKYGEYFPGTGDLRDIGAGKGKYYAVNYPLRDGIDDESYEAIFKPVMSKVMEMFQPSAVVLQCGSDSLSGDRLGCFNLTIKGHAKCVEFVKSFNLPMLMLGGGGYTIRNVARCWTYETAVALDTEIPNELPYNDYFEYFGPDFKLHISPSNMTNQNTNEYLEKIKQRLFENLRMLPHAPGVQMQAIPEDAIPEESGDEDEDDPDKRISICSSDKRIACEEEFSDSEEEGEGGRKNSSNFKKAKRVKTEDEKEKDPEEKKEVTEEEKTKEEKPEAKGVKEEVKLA
# Experimental Details: Inhibition of recombinant human HDAC1 expressed in baculovirus infection system using Ac-peptide-AMC as substrate preincubated for 15 mins followed by substrate addition and measured after 60 mins by fluorescence assay
Quantity Kind: IC50 (nM)
Just the number in nM, nothing appended.

Q: Please report the measured IC50 for COc1cc2nc(N3CCN(Cc4ccc(/C=C/C(=O)NO)cc4)CC3)nc(NC3CCN(Cc4ccccc4)CC3)c2cc1OC
Ans: 94

Q: Please report the measured IC50 for COc1cc2nc(N3CCN(CCCCCC(=O)NO)CC3)nc(NC3CCN(Cc4ccccc4)CC3)c2cc1OC
Ans: 89

Q: Please report the measured IC50 for COc1cc2nc(NCCCCCC(=O)NO)nc(NC3CCN(Cc4ccccc4)CC3)c2cc1OC
Ans: 3.2

Q: Please report the measured IC50 for COc1cc2nc(NCCCCCCC(=O)NO)nc(NC3CCN(C)CC3)c2cc1OC
Ans: 5.8

Q: Please report the measured IC50 for COc1cc2nc(N3CCN(CCCCCC(=O)NO)CC3)nc(NC3CCN(C(C)C)CC3)c2cc1OC
Ans: 51

Q: Please report the measured IC50 for COc1cc2nc(NCCCCCC(=O)NO)nc(NC3CCN(C(C)C)CC3)c2cc1OC
Ans: 8.4

Q: Please report the measured IC50 for COc1cc2nc(NCCCCCCC(=O)NO)nc(NC3CCN(C(C)C)CC3)c2cc1OC
Ans: 4.2

Q: Please report the measured IC50 for COc1cc2nc(NCCCCCC(=O)NO)nc(NC3CCN(C)CC3)c2cc1OC
Ans: 1.3

----------
Parameter: pIC50. Scope: all listed entries.
# System Tested: Protein deacetylase HDAC6 (Homo sapiens, UniProt Q9UBN7)
# Sequence (Q9UBN7 whole entry): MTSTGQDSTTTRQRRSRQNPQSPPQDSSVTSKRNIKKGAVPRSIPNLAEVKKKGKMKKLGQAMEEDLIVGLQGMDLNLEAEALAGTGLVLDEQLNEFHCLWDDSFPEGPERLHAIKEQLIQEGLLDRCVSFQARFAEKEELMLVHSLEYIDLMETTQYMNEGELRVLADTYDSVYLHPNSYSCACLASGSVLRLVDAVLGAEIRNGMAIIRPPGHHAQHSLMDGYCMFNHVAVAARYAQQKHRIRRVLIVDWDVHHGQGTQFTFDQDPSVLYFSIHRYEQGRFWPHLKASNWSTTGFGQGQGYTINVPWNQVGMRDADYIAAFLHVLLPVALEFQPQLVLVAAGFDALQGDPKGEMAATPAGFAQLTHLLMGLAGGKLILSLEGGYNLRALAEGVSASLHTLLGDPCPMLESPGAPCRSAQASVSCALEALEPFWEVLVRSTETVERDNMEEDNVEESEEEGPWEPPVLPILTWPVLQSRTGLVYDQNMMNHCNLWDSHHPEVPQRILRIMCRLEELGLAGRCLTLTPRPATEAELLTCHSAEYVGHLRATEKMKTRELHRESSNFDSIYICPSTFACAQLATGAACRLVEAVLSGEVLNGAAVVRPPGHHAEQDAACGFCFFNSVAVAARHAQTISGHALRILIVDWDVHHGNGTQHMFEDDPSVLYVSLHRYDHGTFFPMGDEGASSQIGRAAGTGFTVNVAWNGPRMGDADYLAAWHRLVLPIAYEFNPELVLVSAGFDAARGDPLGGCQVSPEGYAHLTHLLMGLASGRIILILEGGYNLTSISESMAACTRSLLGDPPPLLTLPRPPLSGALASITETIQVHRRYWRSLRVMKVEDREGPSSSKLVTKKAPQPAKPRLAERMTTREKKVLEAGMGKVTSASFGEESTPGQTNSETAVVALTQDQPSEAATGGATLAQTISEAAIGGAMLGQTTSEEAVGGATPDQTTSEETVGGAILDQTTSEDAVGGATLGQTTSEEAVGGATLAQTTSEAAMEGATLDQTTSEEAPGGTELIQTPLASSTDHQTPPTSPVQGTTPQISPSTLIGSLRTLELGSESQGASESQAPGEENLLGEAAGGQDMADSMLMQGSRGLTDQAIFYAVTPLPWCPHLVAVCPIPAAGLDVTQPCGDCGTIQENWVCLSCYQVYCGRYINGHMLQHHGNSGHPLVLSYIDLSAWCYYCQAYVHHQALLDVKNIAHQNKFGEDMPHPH
# Experimental Details: Inhibition of recombinant HDAC6 (unknown origin) using Ac-peptide-AMC as substrate preincubated for 15 mins followed by substrate addition and measured after 60 mins by fluorescence assay
Units for pIC50: none; it is -log10 of a concentration expressed in mol/L.

See these solved cases before continuing.
Smiles Text	pIC50
COc1cc2nc(NCCCCCCC(=O)NO)nc(NC3CCN(C)CC3)c2cc1OC	7.80
COc1cc2nc(NCCCCCC(=O)NO)nc(NC3CCN(Cc4ccccc4)CC3)c2cc1OC	7.77
COc1cc2nc(NCCCCCCC(=O)NO)nc(NC3CCN(C(C)C)CC3)c2cc1OC	7.92
COc1cc2nc(N3CCN(CCCCCC(=O)NO)CC3)nc(NC3CCN(C(C)C)CC3)c2cc1OC	7.62

Q: Please report the measured pIC50 for COc1cc2nc(N3CCN(CCCCCC(=O)NO)CC3)nc(NC3CCN(Cc4ccccc4)CC3)c2cc1OC
Ans: 7.89

Q: Please report the measured pIC50 for COc1cc2nc(NCCCCCC(=O)NO)nc(NC3CCN(C(C)C)CC3)c2cc1OC
Ans: 6.88

Q: Please report the measured pIC50 for COc1cc2nc(N3CCN(Cc4ccc(/C=C/C(=O)NO)cc4)CC3)nc(NC3CCN(Cc4ccccc4)CC3)c2cc1OC
Ans: 7.30

Q: Please report the measured pIC50 for COc1cc2nc(NCCCCCC(=O)NO)nc(NC3CCN(C)CC3)c2cc1OC
Ans: 7.29

----------
# Test system: HCT-116
# Experimental Details: Antiproliferative activity against human HCT-116 cells measured after 72 hrs by MTT assay
# Assay type: functional, cell-based
# Condition Summary: HCT-116, 72 h
Quantity Kind: IC50 (µM)
Just the number in µM, nothing appended.

See these solved cases before continuing.
Smiles Text	IC50, µM
COc1cc2nc(NCCCCCC(=O)NO)nc(NC3CCN(Cc4ccccc4)CC3)c2cc1OC	44.5
COc1cc2nc(NCCCCCCC(=O)NO)nc(NC3CCN(C(C)C)CC3)c2cc1OC	3.75
COc1cc2nc(N3CCN(CCCCCC(=O)NO)CC3)nc(NC3CCN(Cc4ccccc4)CC3)c2cc1OC	11.1
COc1cc2nc(NCCCCCC(=O)NO)nc(NC3CCN(C(C)C)CC3)c2cc1OC	25.7
COc1cc2c(NC3CCN(C(C)C)CC3)nc(N3CCC(F)(F)CC3)nc2cc1OCCCN1CCCC1	5.01

Q: Please report the measured IC50 for COc1cc2nc(NCCCCCC(=O)NO)nc(NC3CCN(C)CC3)c2cc1OC
Ans: 6.93

----------
# Experimental Details: Cytotoxicity against human HL7702 cells measured after 72 hrs by MTT assay
# Condition Summary: HL7702 (L02) cells
Parameter: log10 of IC50 at 72 h. Scope: all listed entries.
// units: µM (pre-log); metric: IC50 at 72 h; scale: log10

See these solved cases before continuing.
Smiles Text	Numeric Value
COc1cc2nc(NCCCCCCC(=O)NO)nc(NC3CCN(C(C)C)CC3)c2cc1OC	1.10
COc1cc2nc(N3CCN(CCCCCC(=O)NO)CC3)nc(NC3CCN(Cc4ccccc4)CC3)c2cc1OC	1.60

Q: Please report the measured log10 of IC50 at 72 h for COc1cc2c(NC3CCN(C(C)C)CC3)nc(N3CCC(F)(F)CC3)nc2cc1OCCCN1CCCC1
Ans: 0.51

Q: Please report the measured log10 of IC50 at 72 h for COc1cc2nc(NCCCCCC(=O)NO)nc(NC3CCN(Cc4ccccc4)CC3)c2cc1OC
Ans: 1.30

Q: Please report the measured log10 of IC50 at 72 h for COc1cc2nc(NCCCCCC(=O)NO)nc(NC3CCN(C)CC3)c2cc1OC
Ans: 1.50
